Data provenance: patent US20240400677A1

- measurement-target: T1, human SIRPγ on stably transfected CHO cells (human, UniProt Q9P1W8 29-387)
- T1 construct: also called Human SIRPγ CHO
- T1 sequence (Q9P1W8 29-387 limits assumed): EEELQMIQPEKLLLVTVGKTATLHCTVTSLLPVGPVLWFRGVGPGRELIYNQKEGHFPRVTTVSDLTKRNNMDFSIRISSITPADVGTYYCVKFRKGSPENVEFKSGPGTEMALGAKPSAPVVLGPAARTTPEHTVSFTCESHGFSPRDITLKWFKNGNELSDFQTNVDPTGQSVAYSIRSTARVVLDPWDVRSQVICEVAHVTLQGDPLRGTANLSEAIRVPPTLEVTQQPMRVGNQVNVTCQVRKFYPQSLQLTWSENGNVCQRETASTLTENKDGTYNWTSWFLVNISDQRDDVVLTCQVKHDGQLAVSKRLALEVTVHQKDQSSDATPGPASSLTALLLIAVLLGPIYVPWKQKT
- assay-details: flow cytometry, myc-scFv PPE
property-name: MFI fold change over parental CHO (fold)
Use fold as the unit, but write only the number.

Antibody 43 (scFv, V domains shown, scFv in crude PPE, V5/myc-tagged) VH: QVQLVQSGAEVKKPGASVKVSCKASGGTFTSYDINWVRQAPGQGLEWMGWISAYNGHTNYAQNLQGRVTMTRDTSTSTVYMELSSLRSEDTAVYYCAREDSSWYFDLWGRGTLVTVSS VL: DIQMTQSPSSLSASVGDRVTITCRASQSISSWLAWYQQKPGKAPKLLIYDASNLETGVPSRFSGSGSGTDFTLTISSLQPEDFATYYCQQSFSTPPTFGQGTKVEIK ... 41.2
Antibody 14 (scFv, V domains shown, scFv in crude PPE, V5/myc-tagged) VH: QVQLVQSGAEVKKPGASVKVSCKASGYTFTSYYMHWVRQAPGQGLEWMGWVDPNNGDTGYAQKFQGRVTMTRDTSTSTVYMELSSLRSEDTAVYYCARDNWGSLDVWGKGTTVTVSS VL: DIVMTQSPLSLPVTPGEPASISCRSSQSLLHSNGYNYLDWYLQKPGQSPQLLIYAASTLQSGVPDRFSGSGSGTDFTLKISRVEAEDVGVYYCMQGLQTLYSFGQGTKLEIK ... 19.6
Antibody 23 (scFv, V domains shown, scFv in crude PPE, V5/myc-tagged) VH: QVQLVQSGAEVKKPGASVKVSCKASGGTFSNYDINWVRQAPGQGLEWMGWISAYNGNTNYAQKLQGRVTMTRDTSTSTVYMELSSLRSEDTAVYYCAAEAYGDYSLDPWGQGTLVTVSS VL: DIQMTQSPSSLSASVGDRVTITCQASQGISSYLNWYQQKPGKAPKLLIYAASSLQNGVPSRFSGSGSGTDFTLTISSLQPEDFATYYCQQSYSTPITFGQGTRLEIK ... 21.6
Antibody 50 (scFv, V domains shown, scFv in crude PPE, V5/myc-tagged) VH: QVQLVQSGAEVKKPGASVKVSCKASGYTFTGYYMHWVRQAPGQGLEWMGTINPSGGSTSYAQKFQGRVTMTRDTSTSTVYMELSSLRSEDTAVYYCVKGNGYYDLWGQGTLVTVSS VL: DIQMTQSPSSLSASVGDRVTITCRASQSISSWLAWYQQKPGKAPKLLIYDTSNLQGGVPSRFSGSGSGTDFTLTISSLQPEDFATYYCQQYDSFPWTFGQGTKVEIK ... 12.8

Now examine the next entry.
Could you share which MFI fold change over parental CHO value was measured for Antibody 48 (scFv, V domains shown, scFv in crude PPE, V5/myc-tagged) VH: QVQLVQSGAEVKKPGASVKVSCKASGYTFTSYYMHWVRQAPGQGLEWMGWMNPNSGNTGYAQKFQGRVTMTRDTSTSTVYMELSSLRSEDTAVYYCARDQMYSSYGMDVWGQGTTVTVSS VL: DIQMTQSPSSLSASVGDRVTITCRASESITNWLAWYQQKPGKAPKLLIYKASSLESGVPSRFSGSGSGTDFTLTISSLQPEDFATYYCQQSYGTPYTFGQGTKVEIK ?
12.1
